For each of the compounds below, state its IC50.
- Tested on: human liver cancer HepG2 cells
- METHOD: Cell proliferation assay (CCK-8)
- Type: cell-based
- CONDITION_INFO: HepG2, 72 h

// solved cases for IC50 follow
C[C@H]1CCC/C=C/[C@@H]2C[C@H](OC(=O)/C=C/c3ccc(C(F)(F)F)cc3)C[C@H]2[C@H](O)/C=C/C(=O)O1 [Compound 13a] = 100 to 1000 nM
C[C@H]1CCC/C=C/[C@@H]2C[C@H](OC(=O)/C=C/c3cccc(F)c3)C[C@H]2[C@H](OC(=O)/C=C/c2cccc(F)c2)/C=C/C(=O)O1 = 1000 to 10000 nM
C[C@H]1CCC/C=C/[C@@H]2C[C@H](OC(=O)/C=C/c3ccc(F)cc3)C[C@H]2[C@H](O)/C=C/C(=O)O1 = 100 to 1000 nM
Cc1ccc(/C=C/C(=O)O[C@@H]2C[C@@H]3[C@H](/C=C/CCC[C@H](C)OC(=O)/C=C/[C@H]3OC(=O)/C=C/c3ccc(C)cc3)C2)cc1 = 1000 to 10000 nM

Continue with the compound presented below.
INPUT: What does the record list as IC50 for C[C@H]1CCC/C=C/[C@@H]2C[C@H](O)C[C@H]2[C@H](OC(=O)/C=C/c2cnc3ccccc3c2)/C=C/C(=O)O1 [Compound 17b] ?
OUTPUT: < 100 nM

---

Kindly state solubility at 24 h for each of the entries shown.
- METHOD: Solubility test (shaking 24 h at 37° C., HPLC)
- CONDITION_INFO: acetone
Give bare numbers, in mg/mL.

C[C@H]1CCC/C=C/[C@@H]2C[C@H](OC(=O)/C=C/c3cccc(F)c3)C[C@H]2[C@H](O)/C=C/C(=O)O1 = 21.9
C[C@H]1CCC/C=C/[C@@H]2C[C@H](O)C[C@H]2[C@H](OC(=O)/C=C/c2cccc(F)c2)/C=C/C(=O)O1 = 21
C[C@H]1CCC/C=C/[C@@H]2C[C@H](O)C[C@H]2[C@H](OC(=O)/C=C/c2ccc(N(C)C)cc2)/C=C/C(=O)O1 [Compound 10b] = 23.2
C[C@H]1CCC/C=C/[C@@H]2C[C@H](OC(=O)/C=C/c3ccc(N(C)C)cc3)C[C@H]2[C@H](O)/C=C/C(=O)O1 [Compound 10a] = 25.6

Could I get solubility at 24 h for every one of these entries?
1. C[C@H]1CCC/C=C/[C@@H]2C[C@H](OC(=O)/C=C/c3cccc(F)c3)C[C@H]2[C@H](OC(=O)/C=C/c2cccc(F)c2)/C=C/C(=O)O1
2. C[C@H]1CCC/C=C/[C@@H]2C[C@H](OC(=O)/C=C/c3ccc(N(C)C)cc3)C[C@H]2[C@H](OC(=O)/C=C/c2ccc(N(C)C)cc2)/C=C/C(=O)O1 [Compound 10c]

OUTPUT:
12.1
12.5

---

- System: human lung cancer A549 cells
- METHOD: Cell proliferation assay (CCK-8)
- Type: cell-based
- CONDITION_INFO: A549, 72 h
pIC50: −log10 of the molar value.
MEASUREMENT_KIND: pIC50

COc1cc(/C=C/C(=O)O[C@@H]2C[C@H]3[C@H](O)/C=C/C(=O)O[C@@H](C)CCC/C=C/[C@@H]3C2)cc(OC)c1OC [Compound 11a] = 6.00 to 7.00
C[C@H]1CCC/C=C/[C@@H]2C[C@H](OC(=O)/C=C/c3ccc(C(F)(F)F)cc3)C[C@H]2[C@H](OC(=O)/C=C/c2ccc(C(F)(F)F)cc2)/C=C/C(=O)O1 [Compound 13c] = 6.00 to 7.00

INPUT: Could you share which pIC50 value was measured for Cc1ccccc1/C=C/C(=O)O[C@@H]1/C=C/C(=O)O[C@@H](C)CCC/C=C/[C@@H]2C[C@H](O)C[C@H]21 ?
OUTPUT: 6.00 to 7.00

Origin of measurements: patent US20220064138A1
